# methodNotes: inhibitors of the yeast RAM network, pilot screen, dse1pr::URA3 reporter, 5-FOA selection (AID 869);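 note: 0% = DMSO wells with no growth and 100% = 10 µM 1-NA-PP1 with full growth; RAM network block rescues cells from 5-FOA so hits raise OD615 growth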
# conditionSet: S. cerevisiae dse1pr::URA3 5-FOA growth, OD615, 2 d; at 10 µM; active compounds read high; strain carries analog-sensitive mutant Cbk1 kinase
measuredAttribute: inhibition (%)

[
  {
    "molecule": "Cc1ccc(O)c(C(=O)CC(=O)c2cccc(F)c2)c1",
    "measValue": -0.695
  },
  {
    "molecule": "O=C(NCC1CCCO1)C1CCCCN1S(=O)(=O)c1ccc(F)cc1 (stereo not given)",
    "measValue": 0.075
  },
  {
    "molecule": "CCOc1ccc(OCC)c(S(=O)(=O)NCc2ccc3c(c2)OCO3)c1",
    "measValue": 1.52
  },
  {
    "molecule": "CC1(C)SCC2C(=O)N3C(CSC3(C)C)C(=O)N21 (stereo not given)",
    "measValue": 1.5
  },
  {
    "molecule": "CS(=O)(=O)N1Cc2ccccc2CC1C(=O)Nc1ccccc1C(N)=O (stereo not given)",
    "measValue": 3.26
  }
]

====

# methodNotes: Restrictive medium S. cerevisiae growth inhibition, OD615, pilot screen of yeast lifespan reduction project, restrictive growth control (AID 706);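 note: modified DeaD lifespan yeast strain shifted to restrictive glucose medium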
# conditionSet: OD615, 48 h, at 10 µM
Calls of active or inactive are those of the source.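 The calls were made as follows: active = growth inhibition above a set limit, 3 SD over mean compound inhibition, in both replicates (cut at about 43% in these data); inconclusive = above the limit in only one replicate; inactive = at or below the limit in both replicates.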
Classes used: Yes (active), No (inactive)

[
  {
    "compound": "Fc1ccc(Br)cc1C1C=C(c2cccnc2)Nc2ncnn21 (centres undefined)",
    "group": "Yes"
  },
  {
    "compound": "COc1ccc(Oc2coc3c(CN(C)C)c(O)ccc3c2=O)cc1",
    "group": "No"
  },
  {
    "compound": "Cc1ccc(-c2nn(C)c(=O)c3ccccc23)cc1CNC(=O)c1ccco1",
    "group": "No"
  },
  {
    "compound": "Cc1cc(SCC(=O)OCC(=O)N2CCN(C(=O)c3ccco3)CC2)c(C)cc1Br",
    "group": "No"
  },
  {
    "compound": "CCC(CC)C(=O)Nc1cc(C)c2c(=O)oc3ccccc3c2n1",
    "group": "No"
  },
  {
    "compound": "Cn1c(=O)oc2cc(S(=O)(=O)N3CCCC(C(=O)NCc4ccc5c(c4)OCO5)C3)ccc21 (centres undefined)",
    "group": "No"
  },
  {
    "compound": "COc1ccc(Nc2nnc(Cc3ccccc3)c(=O)[nH]2)c(OC)c1",
    "group": "No"
  },
  {
    "compound": "Cn1c(=O)oc2cc(S(=O)(=O)NCc3ccco3)ccc21",
    "group": "No"
  },
  {
    "compound": "Cc1oc2cc(O)ccc2c(=O)c1N1C(=O)c2ccccc2C1=O",
    "group": "No"
  },
  {
    "compound": "Cc1cc(C)n(-c2cc(=O)n(C)c(=O)n2C)n1",
    "group": "No"
  },
  {
    "compound": "O=C(Nc1ccc(S(=O)(=O)N2CCOCC2)cc1)c1ccc(Cl)cc1",
    "group": "No"
  },
  {
    "compound": "Cc1c(C(=O)NCC(C)C)sc2nc(-c3ccc(F)cc3)cn12",
    "group": "No"
  },
  {
    "compound": "COc1ccc(C(=O)N2CCN(c3c(C)cccc3C)CC2)cc1OC",
    "group": "No"
  },
  {
    "compound": "Cc1ccc(-c2nc(CS(=O)CC(=O)NCCC(C)C)c(C)o2)cc1 (centres undefined)",
    "group": "No"
  },
  {
    "compound": "COc1ccc(Cl)cc1Nc1nc(N2CCCC2)nc(N2CCCC2)n1",
    "group": "No"
  },
  {
    "compound": "O=C(NCCCn1ccnc1)c1cccc(S(=O)(=O)Nc2ccccc2F)c1",
    "group": "No"
  },
  {
    "compound": "COc1cc(C(C)=O)ccc1OC(=O)C(C)N1C(=O)c2ccccc2C1=O (centres undefined)",
    "group": "No"
  },
  {
    "compound": "Cc1ccc2c(c1)C(c1ccccc1)N(C(=O)C(C)C)CC(=O)N2 (centres undefined)",
    "group": "No"
  },
  {
    "compound": "O=C1CC(c2ccccc2)n2nc(N3C(=O)CCC3=O)nc2N1 (centres undefined)",
    "group": "No"
  },
  {
    "compound": "COc1ccc(C2C(C(=O)N3CCCCC3)CCC(=O)N2c2cc(OC)c(OC)c(OC)c2)cc1 (centres undefined)",
    "group": "No"
  },
  {
    "compound": "O=C(N=c1nc2ccccn2s1)c1ccccc1",
    "group": "No"
  },
  {
    "compound": "Cc1nc(SCC(=O)Nc2cccc(Cl)c2)n[nH]1",
    "group": "No"
  },
  {
    "compound": "CCN(CC)c1ccc(NC(=O)c2ccc(NC(=O)C3CCCO3)cc2)c(C)c1 (centres undefined)",
    "group": "No"
  },
  {
    "compound": "COCCOC(=O)c1c(C)oc2ccc(OC(=O)c3cccs3)cc12",
    "group": "No"
  },
  {
    "compound": "CCC(=O)c1cc(F)c(N2CCN(S(=O)(=O)c3ccccc3)CC2)cc1C",
    "group": "No"
  },
  {
    "compound": "COc1cc(NC(=O)C2CC2)c(C(=O)O)cc1OC",
    "group": "No"
  },
  {
    "compound": "COc1ccc(-c2cc3ccccc3n2CC(O)CN2CCOCC2)cc1 (centres undefined)",
    "group": "No"
  },
  {
    "compound": "O=C(Cn1cnc2c(cnn2-c2ccccc2)c1=O)NC1CCCC1",
    "group": "No"
  },
  {
    "compound": "C=CCn1c(SCC(=C)C)nc2c1c(=O)[nH]c(=O)n2C",
    "group": "No"
  },
  {
    "compound": "CCOC(=O)c1cn[nH]c1N",
    "group": "No"
  },
  {
    "compound": "Nc1c(C(=O)NCc2ccccc2)nnn1Cc1ccccc1",
    "group": "No"
  },
  {
    "compound": "CCN(CC)CCOc1c(Br)ccc2c1sc1nc3n(c(=O)c12)CCC3",
    "group": "No"
  },
  {
    "compound": "C=CCOC(=O)C1=C(C)NC(C)=C(C(=O)OCC=C)C1c1ccc(O)cc1",
    "group": "No"
  },
  {
    "compound": "CCCOc1ccc(S(=O)(=O)NCc2ccc(OC)cc2)cc1",
    "group": "No"
  },
  {
    "compound": "COCCn1c(=O)[nH]c2cc(C(=O)NCC3CCCO3)ccc2c1=O (centres undefined)",
    "group": "No"
  },
  {
    "compound": "CC(C)N1C(=O)CCC1C(=O)NCCc1ccc(Cl)cc1 (centres undefined)",
    "group": "No"
  },
  {
    "compound": "Cc1cc(NC(=O)COC(=O)C2CCN(S(=O)(=O)c3ccc(Cl)cc3)CC2)no1",
    "group": "No"
  },
  {
    "compound": "O=C(c1c(F)cccc1F)N1CCN(c2cccc(C(F)(F)F)c2)CC1",
    "group": "No"
  },
  {
    "compound": "COc1cccc(NC(=O)CSc2ncnc3c2oc2ccccc23)c1",
    "group": "No"
  }
]

====

# methodNotes: inhibitors of the yeast RAM network, pilot screen, dse1pr::URA3 reporter, 5-FOA selection (AID 869);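 note: 0% = DMSO wells with no growth and 100% = 10 µM 1-NA-PP1 with full growth; RAM network block rescues cells from 5-FOA so hits raise OD615 growth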
# conditionSet: S. cerevisiae dse1pr::URA3 5-FOA growth, OD615, 2 d; at 10 µM; active compounds read high; strain carries analog-sensitive mutant Cbk1 kinase
// values below are reported inhibition

[
  {
    "molecule": "CN(CC1CCCO1)S(=O)(=O)c1ccc(C(=O)Nc2nc3cc4c(cc3s2)OCO4)cc1 (stereo not drawn)",
    "scaleUnit": "%",
    "inhibition": 2.66
  },
  {
    "molecule": "Cc1ccc(N2C(=O)c3oc4ccccc4c(=O)c3C2c2cccnc2)nc1 (stereo not drawn)",
    "scaleUnit": "%",
    "inhibition": 1.04
  },
  {
    "molecule": "CCc1cccc(Nc2cc(C)nc3nc(C)nn23)c1",
    "scaleUnit": "%",
    "inhibition": 2.72
  }
]

====

# testedTarget: Receptor tyrosine-protein kinase erbB-2 (Homo sapiens)
# methodNotes: reducers of endogenous Her2 protein level, primary screen, SKBR3 breast tumor cells, AlphaScreen, ATP viability (AID 461);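 note: lower value means less Her2 protein in the cells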
# conditionSet: 18-24 h, at 10 µM, active compounds read low
measuredAttribute: Her2 level (%)

[
  {
    "molecule": "Nc1cc(C(=O)O)ccc1Nc1ccc(F)c(F)c1",
    "measuredAttribute": "Her2 level",
    "measValue": 112
  },
  {
    "molecule": "C/C(N)=C(/C#N)C(=O)COC(=O)CCSc1ccccc1",
    "measuredAttribute": "Her2 level",
    "measValue": 89
  },
  {
    "molecule": "CCCn1c(=O)[nH]c(=O)c2[nH]cnc21",
    "measuredAttribute": "Her2 level",
    "measValue": 92
  },
  {
    "molecule": "CCOC(=O)c1ccccc1NC(=O)Cn1cnc2c(cnn2-c2ccc(OC)cc2)c1=O",
    "measuredAttribute": "Her2 level",
    "measValue": 91.5
  },
  {
    "molecule": "CC(NC(=O)COc1ccc(Br)cc1)C(=O)O (stereo not drawn)",
    "measuredAttribute": "Her2 level",
    "measValue": 114
  },
  {
    "molecule": "Cc1noc(C)c1COC(=O)c1ccccc1Oc1ccccc1",
    "measuredAttribute": "Her2 level",
    "measValue": 106
  },
  {
    "molecule": "Cc1noc(C)c1C(=O)Nc1ccc(Cl)cc1C(F)(F)F",
    "measuredAttribute": "Her2 level",
    "measValue": 86.5
  },
  {
    "molecule": "Cc1ccc(C(=O)OCC(=O)c2ccc(Cl)s2)s1",
    "measuredAttribute": "Her2 level",
    "measValue": 101
  },
  {
    "molecule": "CCOC(=O)c1ccccc1NC(=O)COC(=O)C1=COCCO1",
    "measuredAttribute": "Her2 level",
    "measValue": 92
  },
  {
    "molecule": "COc1cccc(N2CCN(CC(=O)NCc3cccs3)CC2)c1",
    "measuredAttribute": "Her2 level",
    "measValue": 100
  },
  {
    "molecule": "CCOC(=O)c1[nH]c(C)c(C(=O)NCc2ccccn2)c1C",
    "measuredAttribute": "Her2 level",
    "measValue": 115
  },
  {
    "molecule": "COc1ccc(C2C(C(=O)NCCN3CCOCC3)c3ccccc3C(=O)N2C2CCCCC2)cc1 (stereo not drawn)",
    "measuredAttribute": "Her2 level",
    "measValue": 71
  },
  {
    "molecule": "COc1cc2nc(N3CCN(C(=O)C4CCCO4)CC3)nc(N)c2cc1OC (stereo not drawn)",
    "measuredAttribute": "Her2 level",
    "measValue": 99
  }
]

Reference for the values: PubChem BioAssay
